tested on: TNK1; conditions: concentration: 1 μM, replicates: in singlicate; n = 1
quantity: %Inh

{"molecule": "COc1cc(OC)cc(-c2cc3cnc(N)nc3nc2NC(=O)NC(C)(C)C)c1", "measurementTarget": "TNK1", "quantity": "%Inh", "result": "14%"}
{"molecule": "O=C(Nc1ccc2c(c1)OCO2)NC1CCN(c2ccnc(NCc3ccc(F)cc3)n2)CC1", "measurementTarget": "TNK1", "quantity": "%Inh", "result": "0%"}
{"molecule": "Nc1n[nH]c2nnc(-c3ccccc3)c(-c3ccccc3)c12", "measurementTarget": "TNK1", "quantity": "%Inh", "result": "0%"}
{"molecule": "Cc1ccc(Oc2ccc(Nc3ncnc4cc[nH]c34)cc2C)cn1", "measurementTarget": "TNK1", "quantity": "%Inh", "result": "0%"}
{"molecule": "Cn1c(=O)c(F)c(Nc2ccc(I)cc2F)c2c(=O)n(OC[C@H](O)CO)cnc21", "measurementTarget": "TNK1", "quantity": "%Inh", "result": "29%"}

// COc1cccc(-n2cnc3c(N)ncnc32)c1 : %Inh value = 0%

Note to self: %Inh recorded for Cl.c1ccc(Cn2cnc3cc(Nc4ncnc5ccccc45)ccc32)cc1 was 0%

The recorded %Inh for entry CCCC(=O)Nc1n[nH]c2ncc(-c3cccc4ccccc34)cc12 equals 0%

---

tested on: MTOR; conditions: concentration: 1 μM, replicates: in singlicate; n = 1
quantity: %Inh (%)
Enter your answer as a number in %; do not include the unit.

Some solved entries appear below for comparison.
{"molecule": "C[C@@H]1CC[C@H](C(=O)NC2CCCCC2)CN1c1cc(-c2ccc3c(N)n[nH]c3c2)nc(N)n1", "measurementTarget": "MTOR", "unitsText": "%", "%Inh": 18}
{"molecule": "COc1cc(Nc2ccnc3ccc(C(F)(F)F)cc23)cc(OC)c1OC", "measurementTarget": "MTOR", "unitsText": "%", "%Inh": 21}
{"molecule": "Cc1c(Cn2c(C)nn3c(=O)cc(N4CCO[C@H](C)C4)nc23)cccc1C(F)(F)F", "measurementTarget": "MTOR", "unitsText": "%", "%Inh": 57}
{"molecule": "COC(=O)c1c(-c2ccccc2)c2cc(Br)ccc2c(=O)n1Cc1ccc(S(C)(=O)=O)cc1", "measurementTarget": "MTOR", "unitsText": "%", "%Inh": 28}

Just so you know, measured %Inh for O=C1NC(=O)C(c2ccccc2)=C1Nc1cccc(O)c1 came out at 0

// %Inh lookup, molecule = FC(F)(F)c1ccc(-c2ncn(CCCN3CCOCC3)c2-c2ccncc2)cc1 , result: 12

Reported %Inh of COc1ccc(CNC(=O)NC2CCN(c3ccnc(Nc4ccc(F)cc4)n3)C2)cc1 (stereo not drawn) : 28

So, COc1ccc(-c2coc3ccc(-c4nnc(SCc5cccc(C#N)c5)o4)cc23)cc1 ? Its %Inh was 0

%Inh recorded for this molecule, Cn1c(=O)c(F)c(Nc2ccc(I)cc2F)c2c(=O)n(OC[C@H](O)CO)cnc21 , is 0

---

test system: ACVR2B; details: concentration: 1 μM, replicates: in singlicate; n = 1
quantity: %Inh (%)
Give just the number in %; leave the unit off.

{"compound": "CCn1c(-c2nonc2N)nc2ccccc21 [SB-693162/GW549034]", "%Inh (%)": 0}
{"compound": "FC(F)(F)c1ccc(-c2ncn(CCCN3CCOCC3)c2-c2ccncc2)cc1 [SB-217780]", "%Inh (%)": 0}
{"compound": "COC(=O)c1c(-c2ccccc2)c2cc(C)ccc2c(=O)n1Cc1ccccc1", "%Inh (%)": 0}
{"compound": "Cl.c1ccc(Cn2cnc3cc(Nc4ncnc5ccccc45)ccc32)cc1 [GW272142]", "%Inh (%)": 2}
{"compound": "Cc1nnc(-c2ccc3ncn(-c4ccc(S(C)=O)cc4)c3c2)o1 (centres unmarked)", "%Inh (%)": 0}

GET /value?item= COc1cc2ncn(-c3cc(OCc4ccncc4)c(C(N)=O)s3)c2cc1OC [GSK336313] &field=%Inh returns 0

Entry Nc1nc(-c2ccccc2F)c(-c2ccnc3ccccc23)s1 [GW560459] , %Inh reported as 0

---

tested on: IRAK4; settings: concentration: 1 μM, replicates: in singlicate; n = 1
%Inh values, listed per item
Give a bare numeral; the unit % is implied.

{"molecule": "CCC(=O)c1c(-c2ccccc2)c2cc(Cl)ccc2c(=O)n1Cc1cc(S(C)(=O)=O)n(CC(N)=O)n1", "%Inh [%]": 0}

Query Nc1ncnc2c1ncn2-c1ccc(Cl)cc1 [AH2635] yields %Inh of 0

The molecule CCCC(=O)Nc1n[nH]c2ncc(-c3cccc4ccccc34)cc12 [SB-642057] showed %Inh equal to 41

The molecule CCc1ccc(-c2ccc3c(c2)-c2nn(C)cc2S(=O)(=O)N3C)cc1 showed %Inh equal to 10

Lab note: measured %Inh of COc1ccc(-c2cc3c(C)nc(N)nc3n([C@H]3CC[C@H](O)CC3)c2=O)cn1 was 0

// %Inh value for Cc1cccc(-c2cc(-c3c[nH]nc3-c3ccccn3)ccn2)c1 [GW679395] : 18

Looking up COC(=O)c1c(-c2ccccc2)c2cc(C)ccc2c(=O)n1Cc1ccccc1 , I found its %Inh recorded as 20

%Inh reported for this molecule COc1ccc(-c2cc3c(C)nc(N)nc3n([C@H]3CC[C@H](OCCO)CC3)c2=O)cn1 : 3

Noted for Nc1nccc2scc(-c3ccc4c(c3)CCN4C(=O)Cc3ccccc3)c12 [GSK2576924] : its %Inh reads 0

Record FC(F)(F)c1ccc(-c2ncn(CCCN3CCOCC3)c2-c2ccncc2)cc1 [SB-217780] . Reported %Inh: 0

The measured %Inh associated with O=C(Nc1n[nH]c2nc(-c3ccccc3)c(Br)cc12)C1CC1 [SB-708998] reads 6

%Inh recorded for this molecule, O=C(Nc1ccc2c(c1)OCO2)NC1CCN(c2ccnc(NCc3ccc(F)cc3)n2)CC1 [GSK1379859] , is 0

Sample OCCCNc1nccc(-c2c(-c3cccc(C(F)(F)F)c3)nn3cc(C(F)(F)F)ccc23)n1 [GW630813] ; %Inh observed: 2

Value of measured %Inh for the entry CCn1c(-c2nonc2N)nc2ccccc21 [SB-693162/GW549034] : 48

Reported %Inh ( COc1ccc(Nc2nccc(N3CCC(NS(=O)(=O)c4ccc(NC(C)=O)cc4)C3)n2)cc1 (stereo not shown) [GSK1379729] ) = 57

Value of measured %Inh for the entry COc1cccc(C2=C(N(C)c3ccccc3)C(=O)NC2=O)c1 [SB-334865] : 24

// sample Fc1cccc(CSc2nnc(-c3ccc4c(c3)CCO4)o2)c1 , its %Inh was 100

O=C(NCCNc1ccnc(Nc2ccc(F)cc2)n1)Nc1ccc2c(c1)OCO2 [GSK1379882] has a reported %Inh of 0

Short answer for COc1cccc(-n2cnc3c(N)ncnc32)c1 [SKF-97416] : %Inh was 0

In plain terms, Cc1nnc(-c2ccc(C)c(-c3ccc(C(=O)O)cc3)c2)o1 [GW608005] has a documented %Inh of 13

// recorded %Inh for Cc1ccccc1COc1cc(-n2cnc3cc(Cl)ccc32)sc1C(N)=O [GW813349] : 17

molecule Nc1ncnc2c1ncn2-c1cccc2ccccc12 [SKF-97184] , %Inh observed: 0

---

system: NEK10
quantity: Kd

CCCC(=O)Nc1n[nH]c2ncc(-c3cccc4ccccc34)cc12 tested on NEK10 gave Kd: > 10 µM

---

Below: a set of entries, each annotated with reported %Inh.
test system: BRK; construct: gene PTK6; settings: concentration: 1 μM, replicates: in singlicate; n = 1
State the answer as a number, implicitly in %.

{"compound": "CCC(=O)c1c(-c2ccccc2)c2cc(Cl)ccc2c(=O)n1Cc1cc(C(=O)NC2CC2)n(C)n1", "resultNumber": 0}
{"compound": "COc1cc(Nc2nccc(N3CCC(NC(=O)C(C)c4ccc(Cl)cc4)C3)n2)cc(OC)c1OC (stereo not shown) [GSK1379757]", "resultNumber": 11}
{"compound": "OCCCNc1nccc(-c2c(-c3cccc(C(F)(F)F)c3)nn3cc(C(F)(F)F)ccc23)n1 [GW630813]", "resultNumber": 0}

Here's the next entry for you.
%Inh recorded for this compound, Nc1n[nH]c2nnc(-c3ccccc3)c(-c3ccccc3)c12 [GW554060] , is 8

---

system: p38-gamma; construct: gene MAPK12
pKd: −log10 of the molar value.
quantity: pKd

// field: pKd; key: COc1ccc(-c2cc3c(C)nc(N)nc3n([C@H]3CC[C@H](O)CC3)c2=O)cn1 ; value = < 5.00

---

test system: CDC2L1; construct: gene CDK11B; details: concentration: 1 μM, replicates: in singlicate; n = 1
The compounds listed here are annotated with their %Inh.
Report the value in % with no unit label.

{"compound": "C[C@@H]1CC[C@H](C(=O)NC2CCCCC2)CN1c1cc(-c2ccc3c(N)n[nH]c3c2)nc(N)n1 [GSK2291363]", "measurementTarget": "CDC2L1", "%Inh, %": 0}

Kindly note: CDC2L1, Cc1nn2c(=O)cc(N3CCOCC3)nc2n1Cc1cccc(Cl)c1Cl [GSK2342769] , %Inh value reported: 0

So the reported %Inh for O=C(Nc1n[nH]c2cc(-c3ccccc3F)ccc12)C1CC1 [SB-733371] , on CDC2L1, turned out to be 0

Bench note, CDC2L1: COc1ccc(-n2cnc3c(N)ncnc32)cc1 [SKF-97236] , %Inh reads 0

The recorded %Inh with CDC2L1 for CCn1c(-c2nonc2N)nc2ccccc21 [SB-693162/GW549034] was 0
